Data origin, for the record: patent US10792283B2

- assay-remarks: PK profile after iv and PO dosing in rats
- Assay type: in vivo, SD rats
- measurement-conditions: Sprague-Dawley, rat, in vivo, 1.32 mg/kg; iv, rats

smiles-input	half-life [h]
C[C@H](Nc1nc(N)nc(N)c1C#N)c1cc2ccc(F)cc2nc1-c1ccccn1	3.55

----------
- assay-remarks: PK profile after iv and PO dosing in rats
- Assay type: in vivo, SD rats
- measurement-conditions: Sprague-Dawley, rat, in vivo; po, 10 mg/kg, SD rats

compound	half-life [h]
C[C@H](Nc1nc(N)nc(N)c1C#N)c1cc2ccc(F)cc2nc1-c1ccccn1 [Compound 2]	3.12

----------
- assay-remarks: PK profile after iv and PO dosing in rats
- Type: in vivo, SD rats
- measurement-conditions: Sprague-Dawley, rat, in vivo; po, 10 mg/kg, SD rats

smiles-input	Tmax [h]
C[C@H](Nc1nc(N)nc(N)c1C#N)c1cc2ccc(F)cc2nc1-c1ccccn1	2

----------
Listed here are molecules together with their documented IC50.
- target-or-system: PI3Kδ (Homo sapiens (Human), UniProt O00329)
- Sequence (O00329 whole entry, canonical isoform): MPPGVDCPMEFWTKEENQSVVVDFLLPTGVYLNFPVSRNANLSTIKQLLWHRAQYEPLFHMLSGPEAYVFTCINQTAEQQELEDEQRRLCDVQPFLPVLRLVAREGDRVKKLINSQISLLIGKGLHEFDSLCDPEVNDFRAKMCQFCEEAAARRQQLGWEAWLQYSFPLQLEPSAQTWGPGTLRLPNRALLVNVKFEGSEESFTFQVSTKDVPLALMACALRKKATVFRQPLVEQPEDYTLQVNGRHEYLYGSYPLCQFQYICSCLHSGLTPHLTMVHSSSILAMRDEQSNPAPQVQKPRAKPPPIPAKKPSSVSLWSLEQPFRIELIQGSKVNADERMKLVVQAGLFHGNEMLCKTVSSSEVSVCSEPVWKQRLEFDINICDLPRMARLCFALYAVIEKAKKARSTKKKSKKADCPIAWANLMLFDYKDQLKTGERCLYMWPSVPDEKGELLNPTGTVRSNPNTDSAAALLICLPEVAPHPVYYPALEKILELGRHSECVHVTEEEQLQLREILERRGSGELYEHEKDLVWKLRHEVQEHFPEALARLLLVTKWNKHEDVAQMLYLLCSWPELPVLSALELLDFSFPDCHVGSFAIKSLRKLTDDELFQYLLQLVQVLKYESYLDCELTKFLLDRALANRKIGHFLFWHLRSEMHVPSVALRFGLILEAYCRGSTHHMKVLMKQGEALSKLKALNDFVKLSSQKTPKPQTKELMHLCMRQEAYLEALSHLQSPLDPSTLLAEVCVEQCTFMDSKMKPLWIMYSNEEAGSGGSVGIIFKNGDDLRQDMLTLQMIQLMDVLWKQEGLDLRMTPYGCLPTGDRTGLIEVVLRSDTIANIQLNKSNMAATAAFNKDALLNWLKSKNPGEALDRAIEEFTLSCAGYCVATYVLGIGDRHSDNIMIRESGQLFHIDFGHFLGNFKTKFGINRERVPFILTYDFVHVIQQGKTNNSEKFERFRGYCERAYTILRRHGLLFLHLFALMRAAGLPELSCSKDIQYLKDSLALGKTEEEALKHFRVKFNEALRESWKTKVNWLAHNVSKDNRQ
- Sequence (P27986 whole entry partner, canonical isoform): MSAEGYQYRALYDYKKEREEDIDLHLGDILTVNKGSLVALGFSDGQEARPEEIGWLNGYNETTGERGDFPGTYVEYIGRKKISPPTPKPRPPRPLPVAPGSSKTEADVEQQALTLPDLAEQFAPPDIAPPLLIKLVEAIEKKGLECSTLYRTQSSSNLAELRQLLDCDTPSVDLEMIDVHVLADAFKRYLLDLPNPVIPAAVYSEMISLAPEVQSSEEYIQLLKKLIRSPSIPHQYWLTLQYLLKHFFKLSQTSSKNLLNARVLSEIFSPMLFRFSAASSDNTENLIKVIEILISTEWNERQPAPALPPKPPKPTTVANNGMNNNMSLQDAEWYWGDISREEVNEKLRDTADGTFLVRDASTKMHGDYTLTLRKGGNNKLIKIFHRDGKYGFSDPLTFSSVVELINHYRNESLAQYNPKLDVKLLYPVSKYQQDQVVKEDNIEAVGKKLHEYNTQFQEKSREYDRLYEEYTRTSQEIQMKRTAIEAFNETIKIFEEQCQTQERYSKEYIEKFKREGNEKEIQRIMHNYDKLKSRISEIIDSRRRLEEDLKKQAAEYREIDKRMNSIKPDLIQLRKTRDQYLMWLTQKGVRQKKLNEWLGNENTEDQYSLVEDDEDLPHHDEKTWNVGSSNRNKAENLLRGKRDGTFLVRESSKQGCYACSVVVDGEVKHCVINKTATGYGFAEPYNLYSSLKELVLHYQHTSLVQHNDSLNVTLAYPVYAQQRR
- assay-remarks: Enzymatic activity of PI3K isoforms, TR-FRET assay
- measurement-conditions: 10 μM ATP

molecule	target-or-system	IC50, nM
C[C@H](Nc1nc(N)nc(N)c1C#N)c1cc2ccc(F)cc2nc1-c1ccccc1 [Compound 1]	PI3Kδ (Homo sapiens (Human), UniProt O00329)	0.043
C[C@H](Nc1nc(N)nc(N)c1C#N)c1cc2ccc(F)cc2nc1-c1cccc(F)c1 [Compound 5]	PI3Kδ (Homo sapiens (Human), UniProt O00329)	0.14
C[C@H](Nc1nc(N)nc(N)c1C#N)c1cc2ccc(F)cc2nc1-c1cc(F)cc(F)c1 [Compound 3]	PI3Kδ (Homo sapiens (Human), UniProt O00329)	0.24
C[C@H](Nc1nc(N)nc(N)c1C#N)c1cc2ccc(F)cc2nc1-c1ccccn1 [Compound 2]	PI3Kδ (Homo sapiens (Human), UniProt O00329)	0.086
C[C@H](Nc1nc(N)nc(N)c1C#N)c1cc2ccc(F)cc2nc1-c1ccccc1S(C)(=O)=O [Compound 4]	PI3Kδ (Homo sapiens (Human), UniProt O00329)	0.27
C[C@H](Nc1nc(N)nc(N)c1C#N)c1cc2cccc(Cl)c2nc1-c1ccccn1 [Compound 8]	PI3Kδ (Homo sapiens (Human), UniProt O00329)	0.97
C[C@H](Nc1nc(N)nc(N)c1C#N)c1cc2cccc(F)c2nc1-c1ccccc1S(C)(=O)=O [Compound 7]	PI3Kδ (Homo sapiens (Human), UniProt O00329)	2.1

----------
- assay-remarks: PK profile after iv and PO dosing in rats
- Format: in vivo, SD rats
- measurement-conditions: Sprague-Dawley, rat, in vivo, 1.32 mg/kg; iv, rats
endpoint-name: AUC(0-inf) (ng·h/mL)

compound	recorded-value
C[C@H](Nc1nc(N)nc(N)c1C#N)c1cc2ccc(F)cc2nc1-c1ccccn1 [Compound 2]	4550

----------
Listed here are molecules together with their documented half-life at 1 μM.
- assay-remarks: Hepatocyte stability (parent drug disappearance in cryopreserved hepatocytes)
- Assay type: in vitro ADME, human
- measurement-conditions: human, cryopreserved hepatocytes, human hepatocytes, Table 3 comparison; read-out: T ½
- Protocol: The hepatocyte assay was used to evaluate the metabolic stability of test articles (TA) following incubation in cryopreserved hepatocytes by monitoring parent drug disappearance via […]. The TA with 1% final DMSO concentration was incubated with 0.5 million hepatocytes/ml at 1 μM substrate in duplicate. The incubation was carried out at 37° C. with 5% CO2 and saturating humidity. Samples were taken at 0, 1, 2, and 3 hours to monitor the disappearance of TA and a half-life (t ½) was determined. […]

molecule	half-life at 1 μM
C[C@H](Nc1nc(N)nc(N)c1C#N)c1cc2ccc(F)cc2nc1-c1cccc(F)c1 [Compound 5]	> 12 h
C[C@H](Nc1nc(N)nc(N)c1C#N)c1cc2ccc(F)cc2nc1-c1ccccn1 [Compound 2]	> 48 h
C[C@H](Nc1ncnc(N)c1C#N)c1cc2cccc(F)c2nc1-c1ccccc1S(C)(=O)=O [F, reference compound]	< 6 h
C[C@H](Nc1nc(N)nc(N)c1C#N)c1cc2cccc(F)c2nc1-c1ccccc1S(C)(=O)=O [Compound 7]	> 48 h
C[C@H](Nc1ncnc(N)c1C#N)c1cc2ccc(F)cc2nc1-c1ccccn1 [H, reference compound]	< 1 h
C[C@H](Nc1ncnc(N)c1C#N)c1cc2ccc(F)cc2nc1-c1cccc(F)c1 [G, reference compound]	< 1.5 h
